EXPERIMENT SUMMARY: Solubility of metal piroctone complexes in 5 wt% aqueous SLES 1EO solution
Assay type: physicochemical
CONDITION DETAILS: 1% sample in 5 wt% aqueous solution of SLES 1EO at 20° C.
VALUE TYPE: % Solubility (%)

I: Cc1cc(CC(C)CC(C)(C)C)n(O)c(=O)c1.NCCO (stereo not shown) [1% OCT, piroctone olamine, reference compound]
II: Cc1cc(CC(C)CC(C)(C)C)n([O-])c(=O)c1.Cc1cc(CC(C)CC(C)(C)C)n([O-])c(=O)c1.[Cu+2] (stereo not shown)
Looking at recorded values for % Solubility, does I or II come in lower? Respond with the label that goes with your answer.
II

A: Cc1cc(CC(C)CC(C)(C)C)n([O-])c(=O)c1.Cc1cc(CC(C)CC(C)(C)C)n([O-])c(=O)c1.[Zn+2] (stereo not shown) [1% Zn—PIR, Zinc bis-piroctone, reference compound]
B: Cc1cc(CC(C)CC(C)(C)C)n([O-])c(=O)c1.Cc1cc(CC(C)CC(C)(C)C)n([O-])c(=O)c1.[Mn+2] (stereo not shown)
Looking at recorded values for % Solubility, does A or B come in lower? Respond with the label that goes with your answer.
B
